Some sequences, each annotated with its measured protein stability index.
assay.notes: protein stability index of a GFP-peptide fusion (yeast GPS) (PSI 1-4); higher = more stable; sorted into four equal gates, so the index is relative within each strain
condition.set: pdr5∆
observable: protein stability index

# residue.sequence, observable, assay.value
measured = [
    ("KNVGNKSPEQCILRFLQ [SWI3]", "protein stability index", 2.67),
    ("DFSLRYISNLLYGVTIC [REC8]", "protein stability index", 1.71),
    ("KNAVVRSKFGGDFLDFQ [ARP7]", "protein stability index", 2.57),
    ("LFGSPPFILEYDLMAPN [YMR129W/POM152]", "protein stability index", 2.9),
    ("QVGDGLEILIVTKDGVR [PRE7]", "protein stability index", 2.6),
    ("DGIHYILNHIGQLTGIY [PRP8]", "protein stability index", 1.55),
    ("PSSMATLLKNLRKKLNF [YJR042W/NUP85]", "protein stability index", 2.73),
    ("QIFCVFSGKGVHKLRHY [GRR1]", "protein stability index", 2.88),
    ("FNQFVDYTLQDIICEDS [RPB2]", "protein stability index", 2.86),
    ("SEIWDVSRGQSAVLLET [PRP8]", "protein stability index", 2.65),
    ("INDAGKAKKLIQSLPPT [RPL38]", "protein stability index", 2.38),
    ("RPKKVKLEGSENSEPPA [SNF2]", "protein stability index", 2.95),
    ("VSKKWAAAAVCEKWAAS [RPL14A]", "protein stability index", 3.04),
    ("SEVGNCSGSGMGGVSAL [FAS2]", "protein stability index", 3.38),
    ("KLYTFLARRTDAPFNKV [RPL18A]", "protein stability index", 1.65),
    ("VSNNEANTPSIPTNPVD [SWI3]", "protein stability index", 3.2),
    ("GLIVNPVKVSGTIKKIE [POP5]", "protein stability index", 2.97),
    ("VLRLKPGRKYTTLGKLS [RPL16A]", "protein stability index", 2.94),
    ("SEDSMNVQLRDVIATEP [SMD3]", "protein stability index", 3.36),
    ("RQFLKANKTNLIESLNT [YML103C/NUP188]", "protein stability index", 2.97),
    ("FMLSDDEGMESIEMEEE [RRI2]", "protein stability index", 3.78),
    ("DHLKLVSLFSNLRHERN [YIL149C/MLP2]", "protein stability index", 2.67),
    ("LIQSYSLLDKPDEAIEK [FAS1]", "protein stability index", 2.75),
    ("AQGLLHLGKGTMTMDVF [RPN1]", "protein stability index", 2.61),
    ("EGDFLKSIIGKLTAERA [POP1]", "protein stability index", 3.23),
    ("QFVPELKEFTAKLRKEL [FAS2]", "protein stability index", 1.61),
    ("LSFGTATSDNKTTNTTP [YJL041W/NSP1]", "protein stability index", 3.05),
    ("IKVPTYIRKLISSGLLY [SRB8]", "protein stability index", 1.27),
    ("YSIALSNVAAIFKGIGG [GAL11]", "protein stability index", 1.55),
    ("IPHFIDNNSSLNVSNTK [PRP8]", "protein stability index", 2.42),
    ("LRGEYNDLQSETKTKKE [SMC4]", "protein stability index", 3.4),
    ("AIPSRMTVAHLIECLLS [RPB2]", "protein stability index", 1.85),
    ("PIMQTQMPLNSNGGNNM [SNF2]", "protein stability index", 2.92),
    ("NEGLVEYIDAEEEESIL [RPB2]", "protein stability index", 3.46),
]
